Could you please report measured IC50 for the items listed next?
- Measurement Target: CDK4/cyclin D3 (Homo sapiens)
- Construct: purchased Carna Biosciences, Inc. QS S Assist CDK4/Cyclin D3_FP Kit
- Assay Summary: Human CDK4/cyclin D3 inhibitory activity (QS S Assist CDK4/Cyclin D3_FP Kit, IMAP fluorescence polarization)
- Assay type: biochemical
- Condition Details: Human CDK4/cyclin D3 inhibitory activity; read-out: CDK4 Activity symbol

Item: `CO[C@H](C)c1cc2cnc(Nc3ccc(N4CC5(CNC5)CC4=O)cn3)nc2c(NC(C)C)n1` | IC50: < 10 nM

// `O[C@H]1CC[C@H](Nc2nc(C(F)F)cc3cnc(Nc4ccc(CN5CCNCC5)cn4)nc23)CC1` : IC50 value = < 10 nM

Consider `O=C(O)[C@H]1CC[C@H](Nc2nc(C(F)F)cc3cnc(Nc4ccc(CN5CCNCC5)cn4)nc23)CC1` . Its measured IC50 is 10 to 100 nM

Reported IC50 of `CC(C)Nc1nc([C@@H](C)O)cc2cnc(Nc3ccc(OCCN4CCNCC4=O)cn3)nc12` : < 10 nM

For reference, reported IC50 for CC(C)Nc1nc([C@@H](C)O)cc2cnc(Nc3ccc(OC4CCCNC4)nn3)nc12 (stereo partly shown) stands at < 10 nM

Query `CC(C)Nc1nc(C(F)F)cc2cnc(Nc3ccc(CN(C[C@H]4CCCO4)S(C)(=O)=O)cn3)nc12` yields IC50 of 10 to 100 nM

Value of measured IC50 for the entry `CC(C)Nc1nc([C@@H](C)O)cc2cnc(Nc3ccc(N4CC5(CNC(=O)C5)C4)nn3)nc12` : < 10 nM

====

- Measurement Target: CDK2/cyclin A2 (Homo sapiens, UniProt P24941)
- Construct: purchased Carna Biosciences, Inc. QS S Assist CDK2/Cyclin A2_FP Kit
- Assay Summary: Human CDK2/cyclin A2 inhibitory activity (QS S Assist CDK2/Cyclin A2_FP Kit, IMAP fluorescence polarization)
- Type: biochemical
- Condition Details: Human CDK2/cyclin A2 inhibitory activity; read-out: CDK2 Activity symbol
Hi there, I'd appreciate the recorded IC50 for every entry that follows.

Known value: CDK2/cyclin A2 (Homo sapiens, UniProt P24941) IC50 of the compound CC(C)Nc1nc([C@@H](C)O)cc2cnc(Nc3ccc(N4CCNCC4)nn3)nc12 [Compound 261] equals ≥ 100 nM

# IC50 measured on CDK2/cyclin A2 (Homo sapiens, UniProt P24941) for item CO[C@H](C)c1cc2cnc(Nc3ccc(N4CCCNCC4=O)cn3)nc2c(NC(C)C)n1 [Compound 492] = 10 to 100 nM

Value sought: IC50, system CDK2/cyclin A2 (Homo sapiens, UniProt P24941), item COC1CCC(Nc2nc(C(C)OC)cc3cnc(Nc4ccc(CN5CCNCC5)cn4)nc23)CC1 (stereo not shown) [Compound 395] . Result: ≥ 100 nM

Item COCC(C)(C)Nc1nc([C@@H](C)O)cc2cnc(Nc3ccc(NCCO)nn3)nc12 [Compound 235] ; assay system CDK2/cyclin A2 (Homo sapiens, UniProt P24941); IC50 reported as ≥ 100 nM

Short answer on CDK2/cyclin A2 (Homo sapiens, UniProt P24941) for CC(C)Nc1nc(C(F)F)cc2cnc(Nc3ccc(CN4CCCC4C(=O)O)cn3)nc12 (stereo not shown) [Compound 189] , IC50: 10 to 100 nM

Hey, CDK2/cyclin A2 (Homo sapiens, UniProt P24941) data for CC(C)Nc1nc(C(C)O)cc2cnc(Nc3ccc(N4CCC(O)C4)cn3)nc12 (stereo not shown) [Compound 77] : IC50 came out at ≥ 100 nM

Entry CC(C)Nc1nc([C@@H](C)O)cc2cnc(Nc3ccc(N4CC5(CC(N)C5)C4)nn3)nc12 [Compound 576] ; assay system CDK2/cyclin A2 (Homo sapiens, UniProt P24941); IC50 recorded at ≥ 100 nM

The value of IC50 recorded for COCCNc1nc(C(F)F)cc2cnc(Nc3ccc(N4CCNCC4)cn3)nc12 [Compound 15] when tested on CDK2/cyclin A2 (Homo sapiens, UniProt P24941) reads ≥ 100 nM

Test item CC(C)Nc1nc(C(F)F)cc2cnc(Nc3ccc(C4CCOCC4=O)cn3)nc12 (stereo not shown) [Compound 161] ; CDK2/cyclin A2 (Homo sapiens, UniProt P24941); reported IC50 was 10 to 100 nM

// compound COC1CCC(Nc2nc([C@@H](C)O)cc3cnc(Nc4ccc(N5CCC(O)CC5)nn4)nc23)CC1 (stereo partly shown) [Compound 590] , assay CDK2/cyclin A2 (Homo sapiens, UniProt P24941), IC50 value: ≥ 100 nM

Tested system CDK2/cyclin A2 (Homo sapiens, UniProt P24941); IC50 recorded for CO[C@H](C)c1cc2cnc(Nc3ccc(N4CCN(CCO)CC4)nn3)nc2c(NC(C)C)n1 [Compound 249] was ≥ 100 nM

Cc1c([C@H](C)O)nc(NC(C)C)c2nc(Nc3ccc(N4CCNCC4)cn3)ncc12 [Compound 65] tested on CDK2/cyclin A2 (Homo sapiens, UniProt P24941) gave IC50: ≥ 100 nM

The reported IC50 value, CDK2/cyclin A2 (Homo sapiens, UniProt P24941), for CC(C)Nc1nc(C(F)F)cc2cnc(Nc3ccc(CN4CCS(=O)(=O)CC4)cn3)nc12 [Compound 113] reads ≥ 100 nM

Short answer on CDK2/cyclin A2 (Homo sapiens, UniProt P24941) for CO[C@H](C)c1cc2cnc(Nc3ccc(CC(N)=O)cn3)nc2c(NC(C)C)n1 [Compound 231] , IC50: ≥ 100 nM

Entry CC(C)Nc1nc([C@@H](C)O)cc2cnc(Nc3ccc(N4CC5(CC(N(C)C)C5)C4)nn3)nc12 [Compound 611] , CDK2/cyclin A2 (Homo sapiens, UniProt P24941) data, IC50 value: ≥ 100 nM

Record for CC(C)Nc1nc([C@@H](C)O)cc2cnc(Nc3ccc(N4C(=O)CN5CCC4CC5)cn3)nc12 [Compound 623] under target or system CDK2/cyclin A2 (Homo sapiens, UniProt P24941): IC50 reported as 10 to 100 nM

====

Exercise: for every item that follows, state its recorded pIC50.
- Measurement Target: CDK2/cyclin A2 (Homo sapiens, UniProt P24941)
- Construct: purchased Carna Biosciences, Inc. QS S Assist CDK2/Cyclin A2_FP Kit
- Assay Summary: Human CDK2/cyclin A2 inhibitory activity (QS S Assist CDK2/Cyclin A2_FP Kit, IMAP fluorescence polarization)
- Type: biochemical
- Condition Details: Human CDK2/cyclin A2 inhibitory activity; read-out: CDK2 Activity symbol
pIC50: −log10 of the molar value.

Form field pIC50, entry CC(C)Nc1nc(C(F)F)cc2cnc(Nc3ccc(C4CCC(O)CC4)cn3)nc12 (centres unmarked) [Compound 107] : ≤ 7.00

get_value(item= CC(C)Nc1nc(C(C)O)cc2cnc(Nc3ccc(N4CCC(O)CC4)cn3)nc12 (centres unmarked) [Compound 61] , readout=pIC50) returns ≤ 7.00

The value of pIC50 measured for the molecule CC(=O)c1nc(NC(C)C)c2nc(Nc3ccc(N4CCNCC4)cn3)ncc2c1C [Compound 68] turned out to be ≤ 7.00

Noted for CC(C)Nc1nc(C(F)F)cc2cnc(Nc3ccc(CNC(N)=O)cn3)nc12 [Compound 138] : its pIC50 reads 7.00 to 8.00

Form field pIC50, entry CC(C)Nc1nc(C(F)F)cc2cnc(Nc3ccc(CN4CCOCC4)cn3)nc12 [Compound 94] : ≤ 7.00

pIC50 measured on CCCN1CCN(Cc2ccc(Nc3ncc4cc([C@@H](C)OC)nc(NC(C)C)c4n3)nc2)CC1 [Compound 239] = ≤ 7.00

For CC(C)Nc1nc(C(F)F)cc2cnc(Nc3ccc(CN4CCCCC4)cn3)nc12 [Compound 177] the molecule record lists pIC50 as 7.00 to 8.00

Memo: CO[C@H](C)c1cc2cnc(Nc3ccc(CN4CCNCC4)cn3)nc2c(NCC2CCOCC2)n1 [Compound 360] , reported pIC50: ≤ 7.00

====

Assignment: determine reported IC50 for the given compounds.
- Measurement Target: CDK4/cyclin D3 (Homo sapiens, UniProt P11802)
- Construct: purchased Carna Biosciences, Inc. QS S Assist CDK4/Cyclin D3_FP Kit
- Sequence (P11802 whole entry): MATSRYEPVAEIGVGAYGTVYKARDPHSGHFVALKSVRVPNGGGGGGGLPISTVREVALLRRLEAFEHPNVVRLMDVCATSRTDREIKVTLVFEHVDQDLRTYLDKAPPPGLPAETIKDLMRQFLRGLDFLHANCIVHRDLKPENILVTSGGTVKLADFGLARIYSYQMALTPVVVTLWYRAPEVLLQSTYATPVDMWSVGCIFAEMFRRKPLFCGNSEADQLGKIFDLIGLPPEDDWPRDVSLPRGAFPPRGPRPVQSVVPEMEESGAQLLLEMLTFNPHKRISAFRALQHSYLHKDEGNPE
- Sequence (P30281 whole entry partner): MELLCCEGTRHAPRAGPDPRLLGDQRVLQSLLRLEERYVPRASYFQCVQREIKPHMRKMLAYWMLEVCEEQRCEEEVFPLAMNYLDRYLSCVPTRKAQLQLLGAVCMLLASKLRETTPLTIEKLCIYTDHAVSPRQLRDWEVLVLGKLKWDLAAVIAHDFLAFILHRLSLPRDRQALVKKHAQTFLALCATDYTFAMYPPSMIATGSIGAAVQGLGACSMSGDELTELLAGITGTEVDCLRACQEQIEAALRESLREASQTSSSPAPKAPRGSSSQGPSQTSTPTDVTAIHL
- Assay Summary: Human CDK4/cyclin D3 inhibitory activity (QS S Assist CDK4/Cyclin D3_FP Kit, IMAP fluorescence polarization)
- Format: biochemical
- Condition Details: Human CDK4/cyclin D3 inhibitory activity; read-out: CDK4 Activity symbol
- Procedure: Human CDK4/Cyclin D3 Inhibitory Activity Each compound was analyzed for CDK4/cyclin D3 inhibitory activity with an assay kit (QS S Assist CDK4/Cyclin D3_FP Kit, available from Carna Biosciences, Inc.). […] Specifically, the kinase activity is determined through quantification of a variation in fluorescent polarization caused by binding of a kinase-phosphorylated fluorescent substance to an IMAP-binding reagent. […]

Lab note: `CO[C@H](C)c1cc2cnc(Nc3ccc(N4CCNC4=O)cn3)nc2c(NC(C)C)n1` gave IC50 of < 10 nM

Lab book: IC50 of `Cc1nnc(NCc2ccc(Nc3ncc4cc(C(F)F)nc(NC(C)C)c4n3)nc2)[nH]1` noted as 10 to 100 nM

IC50 reading for `COCC(C)(C)Nc1nc([C@@H](C)O)cc2cnc(Nc3ccc(C4CCNCC4)cn3)nc12` : < 10 nM

Form: compound = `CO[C@H](C)c1cc2cnc(Nc3ccc(N4CCNC(=O)C4)nn3)nc2c(NC(C)C)n1` ; IC50 = 10 to 100 nM

Value of measured IC50 for the entry `CC(C)Nc1nc(C(F)F)cc2cnc(Nc3ccc(N4CCNCC4=O)cn3)nc12` : < 10 nM

Recorded IC50 (compound `CC(C)Nc1nc([C@@H](C)O)cc2cnc(Nc3ccc(CN4CCN(CCO)CC4)cn3)nc12` ): < 10 nM

Per the record, `CC(C)Nc1nc(C(F)F)cc2cnc(Nc3ccc(OCCO)cn3)nc12` has IC50 of < 10 nM

The compound CC(C)Nc1nc([C@@H](C)O)cc2cnc(Nc3ccc(N4CCN(C(C)CO)CC4)nn3)nc12 (some centres unmarked) showed IC50 equal to < 10 nM

Entry under test: CC(C)Nc1nc(C(C)O)cc2cnc(Nc3ccc(N4CCC(N)C(F)C4)nn3)nc12 (centres unmarked) [Compound 619] . Its IC50 was < 10 nM

Lab book: IC50 of `CO[C@H](C)c1cc2cnc(Nc3ccc(OCCCN(C)C)cn3)nc2c(NC(C)C)n1` noted as < 10 nM

// IC50 value for `CNC(=O)CNc1ccc(Nc2ncc3cc([C@@H](C)O)nc(NC(C)C)c3n2)nc1` : 10 to 100 nM

For CC(O)c1cc2cnc(Nc3ccc(N4CCNCC4)cn3)nc2c(NC(C)c2ccccc2)n1 (centres unmarked) the compound record lists IC50 as < 10 nM

IC50 recorded for this compound, `CC(C)Nc1nc([C@@H](C)O)cc2cnc(Nc3ccc(N4C[C@H]5CCN[C@H]5C4=O)cn3)nc12` , is < 10 nM

Consider `CC(C)Nc1nc(C(F)F)cc2cnc(Nc3ccc(CC(N)=O)cn3)nc12` . Its measured IC50 is < 10 nM

Entry `CC(C)Nc1nc(C(F)F)cc2cnc(Nc3ccc(N4CCC(C(=O)O)CC4)cn3)nc12` — recorded IC50 = 10 to 100 nM

The reported IC50 of the compound `CC(C)Nc1nc([C@@H](C)O)cc2cnc(Nc3ccc(OCCN(C)C)nn3)nc12` was < 10 nM

Looking up COC(C)c1cc2cnc(Nc3ccc(CN4CCNCC4)cn3)nc2c(NC2CCC(O)C2)n1 (centres unmarked) , I found its IC50 recorded as < 10 nM

# IC50 of `CO[C@H](C)c1cc2cnc(Nc3ccc(CN4CCNCC4)cn3)nc2c(N[C@H]2CCCOC2)n1` = < 10 nM

// `CC(C)Nc1nc([C@H](C)O)c(F)c2cnc(Nc3ccc(N4CCNCC4)cn3)nc12` : IC50 value = < 10 nM

Recorded IC50 (compound COC(C)c1cc2cnc(Nc3ccc(CN4CCNCC4)cn3)nc2c(Nc2cccc(C(=O)O)c2)n1 (centres unmarked) ): ≥ 100 nM

Reported IC50 of COC(C)c1cc2cnc(Nc3ccc(CN4CCNCC4)cn3)nc2c(NC(C)C2CCOC2)n1 (centres unmarked) : < 10 nM

compound `CC(C)Nc1nc([C@@H](C)O)cc2cnc(Nc3ccc(N4CCNCC4)nn3)nc12` , IC50 observed: < 10 nM

Consider `CC(C)Nc1nc(C(F)F)cc2cnc(Nc3ccc(CN4CCCCC4)cn3)nc12` . Its measured IC50 is < 10 nM

`CC(C)Nc1nc(C(F)F)cc2cnc(Nc3ccc(CCCO)cn3)nc12` yielded IC50 of < 10 nM

The compound listed as `CC(=O)c1cc2cnc(Nc3ccc(N4CCNCC4)cn3)nc2c(NC(C)C)n1` shows IC50 equal to < 10 nM

// `C[C@@H](O)c1cc2cnc(Nc3ccc(N4CCNCC4)nn3)nc2c(N[C@H]2CC[C@H](O)CC2)n1` : IC50 value = < 10 nM

Summary for this compound, `C[C@@H](O)c1cc2cnc(Nc3ccc(N4CCC(O)CC4)nn3)nc2c(N[C@H]2CCCOC2)n1` : IC50 is < 10 nM

Looking up `C[C@@H](O)c1cc2cnc(Nc3ccc(N4CCNCC4=O)cn3)nc2c(N[C@H]2CCOC2)n1` , I found its IC50 recorded as 10 to 100 nM

Documented IC50 of `CC(=O)N(Cc1ccc(Nc2ncc3cc(C(F)F)nc(NC(C)C)c3n2)nc1)CC1CCOCC1` : < 10 nM

// sample CC(C)Nc1nc(C(C)O)cc2cnc(Nc3ccc(N4CCC(O)C(F)C4)nn3)nc12 (centres unmarked) [Compound 607] , its IC50 was < 10 nM

`CC(C)Nc1nc(C(F)F)cc2cnc(Nc3ccc(N4CCNCC4)cn3)nc12` has a reported IC50 of < 10 nM

# IC50 of CC(O)c1cc2cnc(Nc3ccc(N4CCNCC4)cn3)nc2c(NCC(F)(F)F)n1 (centres unmarked) = < 10 nM
